Numbers sourced from patent US20080044413A1.

molecular target: T1, Human EphA2-Fc fusion protein (human, UniProt P29317 24-537); assay: SPR (BIAcore 3000), purified monomeric scFv, human EphA2
T1 construct: extracellular domain; Expressed in HEK 293 cells; Biotinylated in the capture ELISAs; also called soluble EphA2 Fc fusion protein; not shown: Fc portion of a human IgG1
property name: Kd (nM)
State just the number; it will be interpreted in nM.

Prompt: Name the recorded Kd of the binder listed here: parental anti-EphA2 scFv EA2 (scFv, The murine EA2 variable regions were cloned in the same manner as the 4H5 scFv (VH, linker, VL, FLAG, His); also called EA2 scFv; not shown: C-terminal FLAG tag and His tag) scFv: DVKLVESGGGLVKPGGSLKLSCAASGFTFSSYTMSWVRQTPEKRLEWVATISSGGTYTYYPDSVKGRFTISRDNAKNTLYLQMSSLKSEDTAMYYCTREAIFTYWGQGTLVTVSAGGGGSGGGGSGGGGSDIKMTQSPSSMYASLGERVTITCKASQDINNYLSWFQQKPGKSPKTLIYRANRLVDGVPSRFSGSGSGQDYSLTISSLEYEDMGIYYCLKYDEFPYTFGGGTKLEIK
Completion: 870
